Data provenance: ChEMBL document CHEMBL5126603

Some compounds, each annotated with its measured hepatocyte CLint at 1 µM.
test: Metabolic stability in Dunkin-Hartley guinea pig hepatocytes assessed as clearance at 1 uM measured per 10^6 cells and incubated upto 90 mins by LC-MS/MS analysis; assay type: ADME, cell-based, Cavia porcellus, Hepatocyte; conditions: read-out: CLH
measured-property: hepatocyte CLint at 1 µM

>  <compound>
O=C(N[C@@H](c1ccccc1)c1cccc(OCc2ccc(CCNC[C@H](O)c3ccc(O)c4[nH]c(=O)ccc34)cc2)c1)O[C@H]1CN2CCC1CC2 (racemic)

>  <result>
17 µL/min/1e6 cells

$$$$
>  <compound>
Cn1nc(C(=O)OCCCCNC[C@H](O)c2ccc(O)c3[nH]c(=O)ccc23)cc1COc1cccc([C@@H](NC(=O)O[C@H]2CN3CCC2CC3)c2ccccc2)c1

>  <result>
37 µL/min/1e6 cells

$$$$

* * *

test: Metabolic stability in human lung S9 fraction assessed as half life at 1 uM measured after 0 to 60 mins in presence of NADPH by LC-MS/MS analysis; format: ADME, subcellular; settings: time 0-60 min
measured-property: log10 half-life at 1 µM (log10 of the value in min)

>  <compound>
COc1cc(C(=O)OCCCCNC[C@H](O)c2ccc(O)c3[nH]c(=O)ccc23)ccc1COc1cccc([C@@H](NC(=O)O[C@H]2CN3CCC2CC3)c2ccccc2)c1

>  <quantitative-readout>
1.95

$$$$
>  <compound>
O=C(N[C@H](c1ccccc1)c1cccc(OCc2ccc(C(=O)OCCCCNC[C@H](O)c3ccc(O)c4[nH]c(=O)ccc34)cc2)c1)O[C@H]1CN2CCC1CC2

>  <quantitative-readout>
1.23

$$$$
>  <compound>
O=C(N[C@@H](c1ccccc1)c1cccc(OCc2ccc(CCNC[C@H](O)c3ccc(O)c4[nH]c(=O)ccc34)cc2)c1)O[C@H]1CN2CCC1CC2 (racemic)

>  <quantitative-readout>
2.33

$$$$
>  <compound>
O=C(N[C@@H](c1ccccc1)c1cccc(OCc2nc(C(=O)OCCCCNC[C@H](O)c3ccc(O)c4[nH]c(=O)ccc34)co2)c1)O[C@H]1CN2CCC1CC2

>  <quantitative-readout>
1.54

$$$$
>  <compound>
O=C(N[C@@H](c1ccccc1)c1cccc(OCc2ccc(C(=O)OCCCCNC[C@H](O)c3ccc(O)c4[nH]c(=O)ccc34)o2)c1)O[C@H]1CN2CCC1CC2

>  <quantitative-readout>
1.51

$$$$
>  <compound>
O=C(N[C@@H](c1ccccc1)c1cccc(OCc2ccc(C(=O)OCCCCNC[C@H](O)c3ccc(O)c4[nH]c(=O)ccc34)cc2)c1)O[C@H]1CN2CCC1CC2

>  <quantitative-readout>
1.42

$$$$
>  <compound>
O=C(N[C@@H](c1ccccc1)c1cccc(OCc2cccc(C(=O)OCCCCNC[C@H](O)c3ccc(O)c4[nH]c(=O)ccc34)c2)c1)O[C@H]1CN2CCC1CC2

>  <quantitative-readout>
1.24

$$$$

* * *

assay: Metabolic stability in rat hepatocytes assessed as clearance at 1 uM measured per 10^6 cells and incubated upto 90 mins by LC-MS/MS analysis; type: ADME, cell-based, Hepatocyte; details: read-out: CLH
measured-property: hepatocyte CLint at 1 µM (µL/min/1e6 cells)

>  <compound>
Cn1nc(C(=O)OCCCCNC[C@H](O)c2ccc(O)c3[nH]c(=O)ccc23)cc1COc1cccc([C@@H](NC(=O)O[C@H]2CN3CCC2CC3)c2ccccc2)c1

>  <measured-property>
hepatocyte CLint at 1 µM

>  <quantity-unit>
µL/min/1e6 cells

>  <quantitative-readout>
32

$$$$
>  <compound>
O=C(N[C@@H](c1ccccc1)c1cccc(OCc2ccc(CCNC[C@H](O)c3ccc(O)c4[nH]c(=O)ccc34)cc2)c1)O[C@H]1CN2CCC1CC2 (racemic)

>  <measured-property>
hepatocyte CLint at 1 µM

>  <quantity-unit>
µL/min/1e6 cells

>  <quantitative-readout>
25

$$$$

* * *

Some compounds, each annotated with its measured efflux ratio at 2 h, 10 µM.
assay: Efflux ratio of apparent permeability from basolateral to apical side over apical to basolateral side in human Caco-2 cells at 10 uM and measured after 2 hrs by LC-MS/MS analysis; type: ADME, cell-based
measured-property: efflux ratio at 2 h, 10 µM

>  <compound>
Cn1nc(C(=O)OCCCCNC[C@H](O)c2ccc(O)c3[nH]c(=O)ccc23)cc1COc1cccc([C@@H](NC(=O)O[C@H]2CN3CCC2CC3)c2ccccc2)c1

>  <quantitative-readout>
0.7

$$$$
>  <compound>
O=C(N[C@@H](c1ccccc1)c1cccc(OCc2ccc(CCNC[C@H](O)c3ccc(O)c4[nH]c(=O)ccc34)cc2)c1)O[C@H]1CN2CCC1CC2 (racemic)

>  <quantitative-readout>
1.5

$$$$

* * *

test: Toxicity in INH dosed dog assessed as maximum tolerated dose measured after 7 days; type: organism-based, Canis lupus familiaris; conditions: in vivo, inhaled or intranasal, time 7 day

>  <sample-smiles>
Cn1nc(C(=O)OCCCCNC[C@H](O)c2ccc(O)c3[nH]c(=O)ccc23)cc1COc1cccc([C@@H](NC(=O)O[C@H]2CN3CCC2CC3)c2ccccc2)c1

>  <MTD at 168 h (mg/kg/day)>
0.124

$$$$

* * *

test: Half life in Dunkin-Hartley guinea pig lung at 500 nmol/Kg, IT(Intratracheal) measured after 72 hrs by LC/MS-MS analysis; assay type: ADME, tissue-based, Cavia porcellus; settings: inhaled or intranasal
Some molecules, each annotated with its measured half-life.

>  <sample-smiles>
Cn1nc(C(=O)O)cc1COc1cccc([C@@H](NC(=O)O[C@H]2CN3CCC2CC3)c2ccccc2)c1

>  <quantity-unit>
h

>  <half-life>
5.26

$$$$
>  <sample-smiles>
Cn1nc(C(=O)OCCCCNC[C@H](O)c2ccc(O)c3[nH]c(=O)ccc23)cc1COc1cccc([C@@H](NC(=O)O[C@H]2CN3CCC2CC3)c2ccccc2)c1

>  <quantity-unit>
h

>  <half-life>
49.2

$$$$
>  <sample-smiles>
O=c1ccc2c([C@@H](O)CNCCCCO)ccc(O)c2[nH]1

>  <quantity-unit>
h

>  <half-life>
14.3

$$$$

* * *

assay: Metabolic stability in Dunkin-Hartley guinea pig lung S9 fraction assessed as half life at 1 uM measured after 0 to 60 mins in presence of NADPH by LC-MS/MS analysis; type: ADME, subcellular, Cavia porcellus; settings: time 0-60 min

>  <molecule>
O=C(N[C@@H](c1ccccc1)c1cccc(OCc2ccc(C(=O)OCCCCNC[C@H](O)c3ccc(O)c4[nH]c(=O)ccc34)o2)c1)O[C@H]1CN2CCC1CC2

>  <half-life at 1 µM>
> 2 h

$$$$
>  <molecule>
O=C(N[C@@H](c1ccccc1)c1cccc(OCc2ccc(CCNC[C@H](O)c3ccc(O)c4[nH]c(=O)ccc34)cc2)c1)O[C@H]1CN2CCC1CC2 (racemic)

>  <half-life at 1 µM>
1.17 h

$$$$
>  <molecule>
O=C(N[C@@H](c1ccccc1)c1cccc(OCc2nc(C(=O)OCCCCNC[C@H](O)c3ccc(O)c4[nH]c(=O)ccc34)co2)c1)O[C@H]1CN2CCC1CC2

>  <half-life at 1 µM>
> 2 h

$$$$
>  <molecule>
Cn1nc(C(=O)OCCCCNC[C@H](O)c2ccc(O)c3[nH]c(=O)ccc23)cc1COc1cccc([C@@H](NC(=O)O[C@H]2CN3CCC2CC3)c2ccccc2)c1

>  <half-life at 1 µM>
> 2 h

$$$$

* * *

assay: Cmax in Dunkin-Hartley guinea pig lung at 500 nmol/Kg, IT(Intratracheal) measured after 72 hrs by LC/MS-MS analysis; type: ADME, tissue-based, Cavia porcellus; set-up: time 72 hrs, dose 500 nmol/kg, route it(Intratracheal); settings: inhaled or intranasal
Some compounds, each annotated with its measured Cmax.

>  <sample-smiles>
O=c1ccc2c([C@@H](O)CNCCCCO)ccc(O)c2[nH]1

>  <Cmax, ng/g>
334

$$$$
>  <sample-smiles>
Cn1nc(C(=O)O)cc1COc1cccc([C@@H](NC(=O)O[C@H]2CN3CCC2CC3)c2ccccc2)c1

>  <Cmax, ng/g>
1450

$$$$
>  <sample-smiles>
Cn1nc(C(=O)OCCCCNC[C@H](O)c2ccc(O)c3[nH]c(=O)ccc23)cc1COc1cccc([C@@H](NC(=O)O[C@H]2CN3CCC2CC3)c2ccccc2)c1

>  <Cmax, ng/g>
28400

$$$$

* * *

assay: Cmax in Dunkin-Hartley guinea pig plasma at 500 nmol/Kg, IT(Intratracheal) measured after 72 hrs by LC/MS-MS analysis; assay type: ADME, cell-free, Cavia porcellus; parameters: dose 500 nmol/kg, time 72 hrs, route it(Intratracheal); details: inhaled or intranasal
Some compounds, each annotated with its measured Cmax.
measured-property: Cmax (ng/g)

>  <sample-smiles>
Cn1nc(C(=O)OCCCCNC[C@H](O)c2ccc(O)c3[nH]c(=O)ccc23)cc1COc1cccc([C@@H](NC(=O)O[C@H]2CN3CCC2CC3)c2ccccc2)c1

>  <measured-property>
Cmax

>  <quantitative-readout>
126

$$$$
>  <sample-smiles>
Cn1nc(C(=O)O)cc1COc1cccc([C@@H](NC(=O)O[C@H]2CN3CCC2CC3)c2ccccc2)c1

>  <measured-property>
Cmax

>  <quantitative-readout>
41.7

$$$$
>  <sample-smiles>
O=c1ccc2c([C@@H](O)CNCCCCO)ccc(O)c2[nH]1

>  <measured-property>
Cmax

>  <quantitative-readout>
13.8

$$$$
